Recorded residual activity, one value per entry.
target: CDK4 CCND1 (human) (UniProt P24385+P11802); assay: radiometric filter-binding kinase assay, Kinase HotSpot; details: compound 0.5 µM; ATP 10 µM
Sequence (P11802 whole entry, looked up): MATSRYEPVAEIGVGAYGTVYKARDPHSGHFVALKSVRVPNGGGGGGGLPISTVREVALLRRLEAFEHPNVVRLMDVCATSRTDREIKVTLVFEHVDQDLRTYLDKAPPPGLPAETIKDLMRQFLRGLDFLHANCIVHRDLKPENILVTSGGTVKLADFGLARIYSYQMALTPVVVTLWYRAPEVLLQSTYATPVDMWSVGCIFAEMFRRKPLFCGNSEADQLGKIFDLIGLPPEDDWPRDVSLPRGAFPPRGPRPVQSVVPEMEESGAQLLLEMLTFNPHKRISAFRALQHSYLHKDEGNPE
Sequence (P24385 whole entry, looked up): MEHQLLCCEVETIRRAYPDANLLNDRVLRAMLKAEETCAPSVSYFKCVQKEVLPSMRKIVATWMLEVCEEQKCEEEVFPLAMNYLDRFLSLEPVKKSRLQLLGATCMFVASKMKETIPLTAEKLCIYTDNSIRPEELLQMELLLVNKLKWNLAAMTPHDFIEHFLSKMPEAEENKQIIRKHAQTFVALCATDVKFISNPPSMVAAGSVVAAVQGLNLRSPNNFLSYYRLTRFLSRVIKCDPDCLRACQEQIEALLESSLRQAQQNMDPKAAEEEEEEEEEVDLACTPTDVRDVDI

SMILES_INPUT	ASSAY_TARGET	residual activity, %
CC[n+]1c(/C=C/N(C)c2ccccc2)n(-c2ccccc2)c2ccc(-c3nc4ccccc4s3)cc21	CDK4 CCND1 (human) (UniProt P24385+P11802)	107
COc1ccc(COc2ccc(Cc3cnc(N)nc3N)cc2OC)cc1	CDK4 CCND1 (human) (UniProt P24385+P11802)	97.4
N#CC(C#N)=C(N)/C(C#N)=C/c1ccc(O)cc1	CDK4 CCND1 (human) (UniProt P24385+P11802)	100
N#C/C(=C(/N)Sc1ccc(N)cc1)c1ccccc1C(F)(F)F	CDK4 CCND1 (human) (UniProt P24385+P11802)	106
Cc1nc(Nc2ncc(C(=O)Nc3c(C)cccc3Cl)s2)cc(N2CCN(CCO)CC2)n1	CDK4 CCND1 (human) (UniProt P24385+P11802)	94.4
O=c1cc(N2CCOCC2)oc2c1ccc1ccccc12	CDK4 CCND1 (human) (UniProt P24385+P11802)	95.6
COc1cc2ncnc(Nc3cccc(Cl)c3)c2cc1OC	CDK4 CCND1 (human) (UniProt P24385+P11802)	103
Cc1ccc(S(=O)(=O)/C=C/C#N)cc1	CDK4 CCND1 (human) (UniProt P24385+P11802)	103
CCN(CC)CCNC(=O)c1c(C)[nH]c(/C=C2\C(=O)Nc3ccc(F)cc32)c1C	CDK4 CCND1 (human) (UniProt P24385+P11802)	81
Oc1cccc(-c2nc(N3CCOCC3)c3oc4ncccc4c3n2)c1	CDK4 CCND1 (human) (UniProt P24385+P11802)	102
CNc1cc2c(Nc3cccc(Br)c3)ncnc2cn1	CDK4 CCND1 (human) (UniProt P24385+P11802)	104

====

Recorded residual activity, one value per entry.
target: UniProt:P36888; experiment: radiometric filter-binding kinase assay, Kinase HotSpot; settings: compound 0.5 µM; ATP 10 µM
Sequence (P36888 whole entry, looked up): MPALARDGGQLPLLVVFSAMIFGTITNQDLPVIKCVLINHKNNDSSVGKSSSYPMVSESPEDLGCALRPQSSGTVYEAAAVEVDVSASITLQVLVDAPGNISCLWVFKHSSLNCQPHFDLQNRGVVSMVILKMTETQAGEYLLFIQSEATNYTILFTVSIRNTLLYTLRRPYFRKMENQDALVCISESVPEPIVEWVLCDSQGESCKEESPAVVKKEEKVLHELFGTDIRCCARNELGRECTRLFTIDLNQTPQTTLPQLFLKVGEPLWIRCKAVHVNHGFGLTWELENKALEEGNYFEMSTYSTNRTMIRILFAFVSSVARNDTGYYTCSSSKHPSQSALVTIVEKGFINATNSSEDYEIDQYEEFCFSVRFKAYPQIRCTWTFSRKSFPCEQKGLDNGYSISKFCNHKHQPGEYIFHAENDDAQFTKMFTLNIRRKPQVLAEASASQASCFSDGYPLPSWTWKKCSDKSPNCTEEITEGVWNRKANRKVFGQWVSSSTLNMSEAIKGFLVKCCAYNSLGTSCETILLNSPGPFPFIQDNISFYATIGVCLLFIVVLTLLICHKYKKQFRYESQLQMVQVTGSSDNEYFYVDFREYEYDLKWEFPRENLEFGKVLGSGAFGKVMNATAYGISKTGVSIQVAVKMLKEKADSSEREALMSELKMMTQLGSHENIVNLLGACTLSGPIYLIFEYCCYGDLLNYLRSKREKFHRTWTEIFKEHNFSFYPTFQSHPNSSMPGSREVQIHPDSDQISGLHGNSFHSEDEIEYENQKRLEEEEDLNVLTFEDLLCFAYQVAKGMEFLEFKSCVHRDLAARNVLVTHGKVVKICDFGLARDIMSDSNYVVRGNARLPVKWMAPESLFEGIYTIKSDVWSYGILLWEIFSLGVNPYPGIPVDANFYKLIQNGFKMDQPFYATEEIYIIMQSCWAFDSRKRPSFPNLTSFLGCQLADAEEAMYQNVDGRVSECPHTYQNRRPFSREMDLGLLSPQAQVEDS
QUANTITY_MEASURED: residual activity (%)

SMILES_INPUT	MEASURED
CC#CC(=O)Nc1cc2c(Nc3ccc(F)c(Cl)c3)ncnc2cn1	92.1
COc1ccc2c(c[n+](C)c3c4cc5c(cc4ccc23)OCO5)c1OC	76.9
CC(C)N(CCC(=O)c1ccc2ccccc2c1)Cc1ccccc1	97.5
c1ccc(-c2n[nH]cc2-c2ccnc3ccccc23)nc1	91.2
O=C1Nc2ccc(Cl)cc2/C1=C/c1cc(Cl)c(O)c(Cl)c1	26.5

====

target: MARK4 (human); test: radiometric filter-binding kinase assay, Kinase HotSpot; conditions: compound 0.5 µM; ATP 10 µM

SMILES_INPUT	UNIT_DESCRIPTOR	residual activity
CC(C)N(CCC(=O)c1ccc2ccccc2c1)Cc1ccccc1	%	89.3
CCN(CC)C(=O)c1ccc(Nc2nc(OCC3CCCCC3)c3nc[nH]c3n2)cc1	%	93.8
Nc1ncnc2[nH]nc(Nc3ccc(F)cc3)c12	%	99.4
CCN(CC)CCNC(=O)c1c(C)[nH]c(/C=C2\C(=O)Nc3ccc(F)cc32)c1C	%	24.7
CCN(CC)CCNC(=O)c1c(C)[nH]c(/C=C2\C(=O)Nc3ccc(Cl)cc32)c1C	%	7.19
Nc1ccc2ncnc(NCCc3ccc(Oc4ccccc4)cc3)c2c1	%	105
c1ccc(-c2n[nH]cc2-c2ccnc3ccccc23)nc1	%	105
Cc1[nH]c(/C=C2\C(=O)Nc3ccc(S(=O)(=O)N(C)c4cccc(Cl)c4)cc32)c(C)c1C(=O)N1CCN(C)CC1	%	36.2
CC#CC(=O)Nc1cc2c(Nc3ccc(F)c(Cl)c3)ncnc2cn1	%	101
COc1ccc(COc2ccc(Cc3cnc(N)nc3N)cc2OC)cc1	%	89.7
CNC(=O)c1cc(Oc2ccc(NC(=O)Nc3ccc(Cl)c(C(F)(F)F)c3)cc2)ccn1	%	98.1
O=c1cc(N2CCOCC2)oc2c1ccc1ccccc12	%	102
O=S(=O)(c1cccc2cnccc12)N1CCCNCC1	%	103
c1ccc(-c2n[nH]c3c2oc2ccccc23)cc1	%	98.2
O=C1Nc2ccc(Cl)cc2/C1=C/c1cc(Cl)c(O)c(Cl)c1	%	78.4
CCOC(=O)c1c(C)[nH]c(/C=C2\C(=O)Nc3ccccc32)c1C	%	99.6
CNc1cc2c(Nc3cccc(Br)c3)ncnc2cn1	%	84.5
Cc1ccc(NC2=CC(=O)c3sc(C)nc3C2=O)cc1	%	102
COc1ccc2c(c[n+](C)c3c4cc5c(cc4ccc23)OCO5)c1OC	%	99.3
CCCC(=O)Oc1ccc2[nH]c(C(=O)c3cc4ccccc4[nH]3)cc2c1	%	84.1
Cc1ccc(Nc2nccc(N(C)c3ccc4c(C)n(C)nc4c3)n2)cc1S(N)(=O)=O	%	98
O=C(Nc1cccc(Nc2nccc(Nc3cccc(C(F)(F)F)c3)n2)c1)C1CC1	%	108
Oc1cccc(-c2nc(N3CCOCC3)c3oc4ncccc4c3n2)c1	%	93.4
CC[n+]1c(/C=C/N(C)c2ccccc2)n(-c2ccccc2)c2ccc(-c3nc4ccccc4s3)cc21	%	110
CC(=O)c1ccc(N2CCOCC2)cc1O	%	99.4
CCC(=O)Nc1ccc2ncnc(Nc3cccc(Br)c3)c2c1	%	80.2
O=C1NC(=O)C(c2cn(CCCn3ccnc3)c3ccccc23)=C1Nc1ccccc1	%	92.6

All figures here come from the kinase profiling compilation of Christmann-Franck et al. (2016).
